Sourced from patent US8461328B2

study system: JAK3 (Homo sapiens, UniProt P52333)
Construct: made in house; host or cells: SF9 insect cells (baculovirus)
Sequence (P52333 783-1124): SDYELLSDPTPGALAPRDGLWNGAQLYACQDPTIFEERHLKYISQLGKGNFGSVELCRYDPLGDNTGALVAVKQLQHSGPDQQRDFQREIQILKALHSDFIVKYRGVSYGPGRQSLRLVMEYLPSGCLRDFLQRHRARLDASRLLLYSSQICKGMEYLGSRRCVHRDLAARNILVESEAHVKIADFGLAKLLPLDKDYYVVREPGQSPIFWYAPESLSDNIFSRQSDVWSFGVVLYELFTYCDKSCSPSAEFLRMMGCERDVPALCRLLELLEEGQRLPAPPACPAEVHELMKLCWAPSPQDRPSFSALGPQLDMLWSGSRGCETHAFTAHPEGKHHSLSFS
assay name: JAK3 inhibition (Table 4)
Format: biochemical
experimental setup: read-out: JAK3 Ki
pKi: −log10 of the molar value.
measured endpoint: pKi

Example compounds with recorded pKi:
C[C@@H](O)c1nc2cnc3[nH]ccc3c2n1[C@@H]1CCCOC1 [Example 456] ... 6.46
CC(C)(C)OC(=O)NC1CCC(n2cnc3cnc4[nH]ccc4c32)C1 (racemic) [Example 137] ... 7.43
N#C[C@@H]1CCN([C@H]2CC[C@H](n3cnc4cnc5[nH]ccc5c43)CC2)C1 [Example 596] ... 7.17

[1] C[C@@H](O)c1nc2cnc3[nH]ccc3c2n1[C@@H]1COCCC1(F)F [Example 1012]
[2] Cc1nn(C)cc1S(=O)(=O)N1CCC(n2cnc3cnc4[nH]ccc4c32)CC1 [Example 448]
Enquiry: Lowest pKi? choose 1 or 2 Bench note: the answer is the label of the chosen record.
Return: 2
(2: 6.06, 1: 7.12)
